# Percent Effect listing for each entry below
# Tested on: Wolbachia pipientis
# assayProtocol: Anti-Wolbachia Cell-Based Screen
# Assay type: functional
# Design: scale not given: in the data most compounds retested in dose-response had high values
# experimentalContext: 5 µM
In all, about 48,000 compounds went through this assay and about 13,000 (27%) showed an effect of 50% or more. This is one part of the list.
measuredAttribute: Percent Effect (%)

[[record]]
compound = "Cc1csc(N2CCN(Cc3ccccn3)CC2)n1"
testedon = "Wolbachia pipientis"
measuredattribute = "Percent Effect"
displayunit = "%"
numericresult = 105.9

[[record]]
compound = "CC(C)c1nc(CN2CCN(Cc3ccccn3)CC2)cs1"
testedon = "Wolbachia pipientis"
measuredattribute = "Percent Effect"
displayunit = "%"
numericresult = -4.826

[[record]]
compound = "FC(F)(F)c1ccnc(N2CCCN(Cc3ccccn3)CC2)n1"
testedon = "Wolbachia pipientis"
measuredattribute = "Percent Effect"
displayunit = "%"
numericresult = 100.8

[[record]]
compound = "CSc1c[nH]nc1NS(=O)(=O)c1cc(F)ccc1C"
testedon = "Wolbachia pipientis"
measuredattribute = "Percent Effect"
displayunit = "%"
numericresult = -3.23

[[record]]
compound = "CC(C)c1noc(C[S+]([O-])CC(=O)Nc2ccc(F)c(F)c2)n1 (stereo unspecified)"
testedon = "Wolbachia pipientis"
measuredattribute = "Percent Effect"
displayunit = "%"
numericresult = -5.19

[[record]]
compound = "O=C(Cc1cccnc1)N1CCC2(CCN(CC3CCCCC3)C2)CC1.O=C(O)C(F)(F)F.O=C(O)C(F)(F)F"
testedon = "Wolbachia pipientis"
measuredattribute = "Percent Effect"
displayunit = "%"
numericresult = 8.236

[[record]]
compound = "Cc1nc(C(C)(C)NCc2nnc(C(C)C)o2)sc1C"
testedon = "Wolbachia pipientis"
measuredattribute = "Percent Effect"
displayunit = "%"
numericresult = -6.227

[[record]]
compound = "CS(=O)(=O)c1ccc(NC(=O)CSc2ccc3c(c2)CCC3)cn1"
testedon = "Wolbachia pipientis"
measuredattribute = "Percent Effect"
displayunit = "%"
numericresult = 7.446

[[record]]
compound = "CC(C)N1CCCC(CCCc2ccccn2)(C(=O)O)C1 (stereo unspecified)"
testedon = "Wolbachia pipientis"
measuredattribute = "Percent Effect"
displayunit = "%"
numericresult = -10.26

[[record]]
compound = "CN(C(=O)CCc1cccs1)C1CCCN(C2Cc3ccccc3C2)C1 (stereo unspecified)"
testedon = "Wolbachia pipientis"
measuredattribute = "Percent Effect"
displayunit = "%"
numericresult = -51.14

[[record]]
compound = "FC(F)(F)CCc1ccnc(N2CCN(Cc3ccccn3)CC2)n1"
testedon = "Wolbachia pipientis"
measuredattribute = "Percent Effect"
displayunit = "%"
numericresult = 5.215


---

# System: Wolbachia pipientis
# assayProtocol: Anti-Wolbachia Cell-Based Screen
# Assay type: functional
# Parameters: scale not given: in the data most compounds retested in dose-response had high values
# experimentalContext: 5 µM
About 13,000 (27%) of roughly 48,000 compounds showed an effect of 50% or more. This is one part of the list.
measuredAttribute: Percent Effect (%)

[[record]]
molecule = "O=C(CCc1cc2n(n1)CCCN(CCc1ccccc1)C2)NC1CC1"
measuredattribute = "Percent Effect"
numericresult = 113.2

[[record]]
molecule = "CCOc1ccc(N2CCC(C(O)c3ccccc3)CC2)nn1 (stereo unspecified)"
measuredattribute = "Percent Effect"
numericresult = -5.535

[[record]]
molecule = "CC(C)c1nnc2n1CCN(C(=O)c1ccnc(N(C)C)c1)C2"
measuredattribute = "Percent Effect"
numericresult = -1.642

[[record]]
molecule = "Nc1ncccc1CN1CCCn2nc(CCC(=O)NC3CC3)cc2C1"
measuredattribute = "Percent Effect"
numericresult = 172.9

[[record]]
molecule = "CSc1ccccc1CN1CCCn2nc(CNC(=O)N(C)C)cc2C1"
measuredattribute = "Percent Effect"
numericresult = 2.043

[[record]]
molecule = "COC[C@]12COC[C@H]1CN(S(=O)(=O)c1cccnc1)C2"
measuredattribute = "Percent Effect"
numericresult = 6.326

[[record]]
molecule = "Cc1noc(C)c1CN1CCN(CCN(C)C)c2ncccc2C1.O=C(O)C(F)(F)F.O=C(O)C(F)(F)F.O=C(O)C(F)(F)F"
measuredattribute = "Percent Effect"
numericresult = 0.7067

[[record]]
molecule = "Cc1cc(CN2CCCn3nc(CCC(=O)O)cc3C2)ccc1F"
measuredattribute = "Percent Effect"
numericresult = -13.15

[[record]]
molecule = "CCOCC1CN(Cc2cccc(C#N)c2)Cc2nccn2C1.O=C(O)C(F)(F)F (stereo unspecified)"
measuredattribute = "Percent Effect"
numericresult = 5.676

[[record]]
molecule = "Cc1nnc2n1CCN(C(=O)c1cc(Cl)c[nH]1)C2"
measuredattribute = "Percent Effect"
numericresult = -1.056

[[record]]
molecule = "COCC(=O)N1CCC2(CC1)CC(N1CCN(C)CC1)CO2 (stereo unspecified)"
measuredattribute = "Percent Effect"
numericresult = -3.796


The reported measurements were obtained from ChEMBL document CHEMBL3988442.
